Target: DNA dC->dU-editing enzyme APOBEC-3F (Homo sapiens) (UniProt Q8IUX4)
Sequence (Q8IUX4 whole entry, looked up): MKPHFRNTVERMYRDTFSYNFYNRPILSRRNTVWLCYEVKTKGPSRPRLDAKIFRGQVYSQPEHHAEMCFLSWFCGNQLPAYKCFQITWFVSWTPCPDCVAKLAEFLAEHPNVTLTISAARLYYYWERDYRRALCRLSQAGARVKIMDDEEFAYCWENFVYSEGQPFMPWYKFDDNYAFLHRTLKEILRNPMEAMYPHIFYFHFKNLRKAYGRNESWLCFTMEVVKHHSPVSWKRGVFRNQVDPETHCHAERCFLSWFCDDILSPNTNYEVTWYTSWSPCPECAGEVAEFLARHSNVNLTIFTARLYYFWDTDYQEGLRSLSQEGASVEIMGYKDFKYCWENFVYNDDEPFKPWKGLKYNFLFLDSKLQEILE
Assay: qHTS for inhibitors of Vif-A3F interactions: Cherry picks counterscreen; further: nearly all actives have a fitted effect of over 65% in size
Details: HeLa A3F-eYFP/Vif cells, eYFP fluorescence, 24 h; series mostly up to 46.1 µM
In all, about 2,100 compounds went through this assay and about 1,100 (52%) were called active. Not shown: some 29% with an inconclusive outcome. The call rests on the fitted dose curve; in most records, active means well fitted inhibition curve with a large enough effect; inconclusive means small, poorly fitted or top-dose-only effect; inactive means no such curve, though single readings can be large or run the other way. So high a share suggests a set chosen from earlier hits. This is one part of the list.
Pick from YES for active, NO for inactive when you respond.

In [3]: df
Out[3]:
                                   molecule  answer_label
0  COc1ccc(C2C(C#N)=C(N)Oc3cc(N)ccc32)cc1OC (stereo unspecified)           YES
1             O=C1N/C(=C\c2ccccc2)c2ccccc21           YES
2  CCn1c(O)c(/C=N/NC(=O)c2ccncc2)c(=O)n(CC)c1=S            NO
3  CC(=Nc1ccccc1)C1=C(O)C(Cc2ccccc2)NC1=O (stereo unspecified)           YES
4  COc1cc(OC)c(OC)cc1/C=C1\CC(C)C/C(=C\c2cc(OC)c(OC)cc2OC)C1=O (stereo unspecified)           YES

Just curious, what result did `O=C(N/N=C/c1ccco1)c1cc(-c2ccncc2)nc2ccccc12` get here?
YES

Just curious, what result did `O=C(NC1CC1)c1cccc2c1C(=O)c1ccc(N3CCC(Cc4ccccc4)CC3)cc1S2(=O)=O` get here?
YES

Just curious, what result did `CN(C)c1ccc(/C=C/c2cc(/C=C/c3ccc(N(C)C)cc3)c3ccccc3n2)cc1` get here?
YES

Just curious, what result did `COC(=O)c1sc2nc(CSc3ccc(Br)cc3)[nH]c(=O)c2c1C` get here?
NO

Just curious, what result did `CCN(CC)c1ccc(/C=C/c2cc(-c3ccccc3)c3ccccc3n2)cc1` get here?
YES

Just curious, what result did `O=C1NC(c2ccccc2Br)=N/C1=C\c1ccco1` get here?
NO

----------
Biological target: DNA dC->dU-editing enzyme APOBEC-3F (Homo sapiens) (UniProt Q8IUX4)
Assay: qHTS for inhibitors of Vif-A3F interactions: Cherry picks counterscreen; further: nearly all actives have a fitted effect of over 65% in size; further: potency means the concentration at half of the fitted maximal effect
Conditions: HeLa A3F-eYFP/Vif cells, eYFP fluorescence, 24 h; series mostly up to 46.1 µM
In all, about 2,100 compounds went through this assay and about 1,100 (52%) were called active. Roughly 29% stayed inconclusive and do not appear here. The set was probably picked from earlier hits. Some of the results follow.
parameter_measured: Potency

In [3]: df
Out[3]:
                                   compound   measured_value
0     CC(C)(C)c1ccc(Cn2c(=O)cnc3ccccc32)cc1         inactive
1  N#CCSc1ccccc1NC(=O)CN1C(=O)C2CC=CCC2C1=O (stereo not drawn)   14 µM (active)
2  Cc1cc2nc3c(=O)n(C4CCCCC4)c(=O)[nH]c3nc2cc1N  9.2 µM (active)
3      Cn1c(=O)c2c(nc(NC3CCCC3)n2C)n(C)c1=O         inactive

Look up and state reported Potency for `C/C(=N\NC(=S)NC(C)C)c1ccc(C(C)(C)C)cc1`
inactive

----------
Target: DNA dC->dU-editing enzyme APOBEC-3F (Homo sapiens)
Assay: qHTS for inhibitors of Vif-A3F interactions: Cherry picks counterscreen; further: nearly all actives have a fitted effect of over 65% in size
Details: HeLa A3F-eYFP/Vif cells, eYFP fluorescence, 24 h; series mostly up to 46.1 µM
In all, about 2,100 compounds went through this assay and about 1,100 (52%) were called active. Another 29% or so got no clear call; they are omitted. Calls follow the shape of the dose curve; as a rule, active = well fitted inhibition curve with a large enough effect; inconclusive = small, poorly fitted or top-dose-only effect; inactive = no such curve, though single readings can be large or run the other way. So high a share suggests a set chosen from earlier hits. This is one part of the list.
Pick from active, inactive when you respond.

>>> print(df.to_string())
                                   compound                           target_of_assay  answer_label
0  O=C1COc2ccc(C(=O)CSc3nc4ccccc4c(=O)n3-c3ccc(Cl)c(Cl)c3)cc2N1  DNA dC->dU-editing enzyme APOBEC-3F (Homo sapiens)        active

Just curious, what result did `N#C/C(=C/c1ccc(N2CCOCC2)o1)C(=O)NC1CCCCC1` get here?
active

----------
Target: DNA dC->dU-editing enzyme APOBEC-3F (Homo sapiens) (UniProt Q8IUX4)
Experiment: qHTS for inhibitors of Vif-A3F interactions: Cherry picks counterscreen; further: nearly all actives have a fitted effect of over 65% in size; further: potency means the concentration at half of the fitted maximal effect
Details: HeLa A3F-eYFP/Vif cells, eYFP fluorescence, 24 h; series mostly up to 46.1 µM
Out of some 2,100 compounds screened, about 1,100 (52%) were called active. Inconclusive results (about 29%) are left out. So high a share suggests a set chosen from earlier hits. The list shows a part of the results.
parameter_measured: Potency

Please review the entries below; each comes with its answer.
>>> df
                                   molecule                           target_of_assay  parameter_measured    measured_value
0             C=CCN1C=CC(=CC=C(C#N)C#N)C=C1  DNA dC->dU-editing enzyme APOBEC-3F (Homo sapiens) (UniProt Q8IUX4)             Potency  17.7 µM (active)
1           C/C(CCC(C)C)=N\NC(=S)NCc1ccccc1  DNA dC->dU-editing enzyme APOBEC-3F (Homo sapiens) (UniProt Q8IUX4)             Potency          inactive
2  COc1ccc(C(C)(O)c2nc(-c3ccccc3OC)cs2)cc1 (stereo not drawn)  DNA dC->dU-editing enzyme APOBEC-3F (Homo sapiens) (UniProt Q8IUX4)             Potency  12.5 µM (active)
3   Cc1cc(C)cc(Oc2nc(C(F)(F)F)nc3ccccc23)c1  DNA dC->dU-editing enzyme APOBEC-3F (Homo sapiens) (UniProt Q8IUX4)             Potency  11.2 µM (active)

GET Potency where system = DNA dC->dU-editing enzyme APOBEC-3F (Homo sapiens) (UniProt Q8IUX4) and item = `COc1ccc(OC)c(NC(=O)Cn2cnc3onc(-c4ccc(Cl)cc4)c3c2=O)c1`
inactive

----------
Target: DNA dC->dU-editing enzyme APOBEC-3F (Homo sapiens) (UniProt Q8IUX4)
Test: qHTS for inhibitors of Vif-A3F interactions: Cherry picks counterscreen; further: nearly all actives have a fitted effect of over 65% in size
Details: HeLa A3F-eYFP/Vif cells, eYFP fluorescence, 24 h; series mostly up to 46.1 µM
About 1,100 (52%) of roughly 2,100 compounds were called active. Another 29% or so got no clear call; they are omitted. Calls come from the whole dose curve; as a rule, active = well fitted inhibition curve with a large enough effect; inconclusive = small, poorly fitted or top-dose-only effect; inactive = no such curve, though single readings can be large or run the other way. The set was probably picked from earlier hits. The list shows a part of the results.
Pick from 1 = active, 0 = inactive when you respond.

Just curious, what result did `C[n+]1ccc(/C=C/c2cc[n+](C)c3ccccc23)c2ccccc21` get here?
0

----------
Target: DNA dC->dU-editing enzyme APOBEC-3F (Homo sapiens) (UniProt Q8IUX4)
Experiment: qHTS for inhibitors of Vif-A3F interactions: Cherry picks counterscreen; further: nearly all actives have a fitted effect of over 65% in size
Details: HeLa A3F-eYFP/Vif cells, eYFP fluorescence, 24 h; series mostly up to 46.1 µM
Out of some 2,100 compounds screened, about 1,100 (52%) were called active. Inconclusive results (about 29%) are left out. The call rests on the fitted dose curve; in most records, active means well fitted inhibition curve with a large enough effect; inconclusive means small, poorly fitted or top-dose-only effect; inactive means no such curve, though single readings can be large or run the other way. The set was probably picked from earlier hits. The list shows a part of the results.
Pick from y for active, n for inactive when you respond.

                           sample_smiles  answer_label
0  COC(=O)c1c(-c2ccccc2Cl)noc1/C=C/N(C)C             n

Just curious, what result did `CC(=O)c1cc(NC(=O)c2ccc(C)cc2)c(=O)oc1/C=C/N(C)C` get here?
y

Just curious, what result did `CCOc1ccc(CN2C(=O)c3ccccc3Sc3ccc(C(=O)O)cc32)cc1` get here?
y

Just curious, what result did `COc1ccc(C(=O)Nc2cc(C(C)=O)c(/C=C/N(C)C)oc2=O)cc1` get here?
y

Just curious, what result did `O=[N+]([O-])c1ccccc1S(=O)(=O)Nc1ccc(-c2ccc(N3CCOCC3)nn2)cc1` get here?
n

----------
Biological target: DNA dC->dU-editing enzyme APOBEC-3F (Homo sapiens) (UniProt Q8IUX4)
Assay: qHTS for inhibitors of Vif-A3F interactions: Cherry picks counterscreen; further: nearly all actives have a fitted effect of over 65% in size
Settings: HeLa A3F-eYFP/Vif cells, eYFP fluorescence, 24 h; series mostly up to 46.1 µM
Screen size: about 2,100 compounds; about 1,100 (52%) were called active. About 29% were inconclusive and are not listed. Calls come from the whole dose curve; as a rule, active = well fitted inhibition curve with a large enough effect; inconclusive = small, poorly fitted or top-dose-only effect; inactive = no such curve, though single readings can be large or run the other way. The set was probably picked from earlier hits. Some of the results follow.
Pick from YES = active, NO = inactive when you respond.

>>> print(df.to_string())
                                   compound  answer_label
0  CCN(CC)c1ccc2cc(-c3nc4sc5c(c4c(=O)[nH]3)CCC(C(C)(C)C)C5)c(=O)oc2c1 (stereo not given)            NO

Just curious, what result did `O=C(N/N=C/c1ccc(Cl)cc1)c1cc(-c2cccnc2)nc2ccccc12` get here?
YES

Just curious, what result did `CCOc1cc(C)nc(NCc2ccccc2)n1` get here?
NO

Just curious, what result did `Cc1cc(C(=O)N/N=C/c2ccc(C)o2)c2ccccc2n1` get here?
YES

Just curious, what result did `COc1ccc(-c2nnc(SCC(=O)NCc3ccccc3)nc2-c2ccc(OC)c(OC)c2)cc1OC` get here?
YES

Just curious, what result did `Cc1ccc(C=NNC(=O)c2cc(-c3cccnc3)nc3ccccc23)o1` get here?
YES

Just curious, what result did `CCOc1ccc(-c2cc(C(=O)N/N=C(\C)c3cccnc3)c3ccccc3n2)cc1` get here?
NO

Just curious, what result did `C/C(=N\NC(=O)c1cc(C)nc2ccccc12)c1ccncc1` get here?
NO

Just curious, what result did `COc1ccc(-c2nc3c4ccccc4ccn3c2Cc2ccsc2)cc1OC` get here?
NO

Just curious, what result did COc1ccc2cc(-c3nc(Cl)c4c5c(sc4n3)CC(C)CC5)c(=O)oc2c1 (stereo not given) get here?
YES

Source: PubChem BioAssay AID651815
